Recorded IC50 values (BCL-xL (Homo sapiens (Human))) are given below.

Problem: Given the entry COc1cccc(CN(C(=O)c2cc(-c3cc(Cl)ccc3C(=O)N3Cc4ccccc4C[C@H]3CN3CCOCC3)n(C)c2C)c2ccc(O)cc2)c1C [Compound 7] , what IC50 was observed with BCL-xL (Homo sapiens (Human))?
Result: 2 to 5 µM

New cases:
Problem: Look up IC50 with BCL-xL (Homo sapiens (Human)) for this molecule: COc1cccc(CN(C(=O)c2cc(-c3cc(F)c(OC(F)F)cc3C(=O)N3Cc4ccccc4C[C@H]3CN3CCOCC3)n(C)c2C)c2ccc(C#N)cc2)c1C [Compound 44]
Sequence (Q07817 whole entry): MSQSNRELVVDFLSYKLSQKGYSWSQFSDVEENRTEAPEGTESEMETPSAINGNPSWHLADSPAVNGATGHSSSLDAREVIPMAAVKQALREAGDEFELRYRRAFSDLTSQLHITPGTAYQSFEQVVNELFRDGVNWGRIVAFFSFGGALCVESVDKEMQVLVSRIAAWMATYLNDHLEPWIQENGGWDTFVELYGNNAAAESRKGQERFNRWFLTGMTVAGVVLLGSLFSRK
Result: 2 to 5 µM

Problem: Param readout= IC50; system= BCL-xL (Homo sapiens (Human)); entry= COc1cccc(CN(C(=O)c2cc(-c3cc(C#N)ccc3C(=O)N3Cc4ccccc4C[C@H]3CN3CCOCC3)n(C)c2C)c2ccc(O)cc2)c1C [Compound 57] ; returns value.
Result: 2 to 5 µM

Problem: Lab note: need IC50 with BCL-xL (Homo sapiens (Human)) for entry N#Cc1ccccc1CN(C(=O)c1cc(-c2cc(Cl)ccc2C(=O)N2Cc3ccccc3C[C@H]2CN2CCOCC2)n2c1CCCC2)c1ccc(O)cc1 [Compound 3] , please look it up.
Result: > 5 µM

Problem: API: value(readout=IC50, system=BCL-xL (Homo sapiens (Human))) for record COc1cc(-c2cc(C(=O)N(Cc3ccccc3OC)c3ccc(Cl)cc3)c(C)n2C)c(C(=O)N2Cc3ccccc3C[C@H]2CN2CCOCC2)cc1C#N [Compound 56]
Result: 2 to 5 µM

Problem: For the record COc1cccc(CN(C(=O)c2cc(-c3ccc(OC(F)F)cc3C(=O)N3Cc4ccccc4C[C@H]3CN3CCOCC3)n(C)c2C)c2ccc(Cl)cc2)c1C [Compound 12] , what value of IC50 is listed for BCL-xL (Homo sapiens (Human))?
Result: 2 to 5 µM

Just for reference, patent US20250115577A1 is where these values come from.
